- Test system: cyclooxygenase metabolite (PGE2) formation in cultured 3T3 mouse fibroblasts (CCL92-3T3)
- Assay Name: In Vitro Cyclooxygenase Assay (PGE2)
- Type: cell-based
- Recorded Conditions: Fibroblast, 24 hours, radioimmunoassay
- Protocol: The ability of a compound to reduce cyclooxygenase metabolite formation in cultured 3T3 mouse fibroblasts (CCL92-3T3) was measured by radioimmunoassay of prostaglandin E2 (PGE2) levels in the culture media. […] The cells were then incubated for 24 hours and PGE2 levels in the media were quantitated by radioimmunoassay according to established procedure (Lingren et al., FEBS Lett., 48, 22). […]
The following compounds are shown together with reported IC50 values.
Endpoint Name: IC50 (nM)

>>> recorded_number("CN(O)C(=O)CCc1ccc2c(c1)Cc1ccccc1CO2")
1000
>>> recorded_number("CC(C)Cc1ccc(C(C)C(=O)O)cc1 (stereo not shown) [Ibuprofen, reference compound]")
22
>>> recorded_number("CN(O)CCc1ccc2c(c1)C(=O)c1ccccc1CO2")
100
>>> recorded_number("CN(O)C(=O)CCc1ccc2c(c1)C(=O)c1ccccc1CO2")
780
